# TEST TARGET: purified HLA DRB1 *1501 (Homo sapiens, UniProt P01903+P01911)
# ASSAY REMARKS: IC50nM to purified HLA | DRB1 *1501
Where no end group is shown, it is not given here.
Reported log10 IC50 values follow for various sequences
The figures below represent log10 of IC50, where IC50 is stated in nM.

Here is how some sequences turned out for log10 IC50.
1) AAAHFVAAYTLHAAA [SEQ ID NO: 27]	0.62
2) AAAWFVAAWTLHAAA [SEQ ID NO: 7]	1.56
3) AAAWFVAAWTLKAAA [SEQ ID NO: 5]	1.49
4) AAAKFVAAWTLKAAA [SEQ ID NO: 4]	0.99
5) AAAWFVAANTLHAAA [SEQ ID NO: 10]	2.00

Answer with reported log10 IC50 of AAAWFVAAFTLHAAA [SEQ ID NO: 9]
1.58

Answer with reported log10 IC50 of AAAFFVAANTLHAAA [SEQ ID NO: 15]
1.85

Answer with reported log10 IC50 of AAAHFVAAWTLKAAA [SEQ ID NO: 25]
1.30

Answer with reported log10 IC50 of AAAYFVAANTLHAAA [SEQ ID NO: 24]
1.72

Answer with reported log10 IC50 of AAAWFVAAYTLHAAA [SEQ ID NO: 8]
0.79

Answer with reported log10 IC50 of AAAFFVAAWTLKADA [SEQ ID NO: 16]
1.81

Answer with reported log10 IC50 of AAAFFVAAWTLKAAA [SEQ ID NO: 11]
1.51
